B1: ANKRD40 (parent)
chain: VRIQNPSLRENDFIEIELDRQELT

Variants of: B1
method description: protein stability index of a GFP-peptide fusion (GPS, HEK-293T) (PSI 1-6); higher = more stable;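 further: lentivirally expressed fusions sorted by FACS into six bins by GFP to DsRed ratio, PSI derived from sequencing read proportions per bin multiplied by bin number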
conditions used: c terminus: a fixed tail appended
As shown below, each of these variants has a reported protein stability index value.
measured parameter: protein stability index

{"mut": "R20M", "reported measurement": 2.92}
{"mut": "N11E", "reported measurement": 1.79}
{"mut": "R20W", "reported measurement": 1.48}
{"mut": "E10H", "reported measurement": 2.38}
{"mut": "E17Q", "reported measurement": 1.96}
{"mut": "N11L", "reported measurement": 1.7}
{"mut": "L18D", "reported measurement": 4.8}
{"mut": "N5T", "reported measurement": 2.16}
{"mut": "I16W", "reported measurement": 2.89}
{"mut": "L23I", "reported measurement": 2.45}
{"mut": "R20E", "reported measurement": 2.42}
{"mut": "E22W", "reported measurement": 1.82}
{"mut": "I16E", "reported measurement": 4.8}
{"mut": "E22Q", "reported measurement": 1.86}
{"mut": "D12R", "reported measurement": 2.97}
{"mut": "P6N", "reported measurement": 2.67}
{"mut": "N11W", "reported measurement": 1.41}
{"mut": "I3Y", "reported measurement": 3.11}
{"mut": "Q21K", "reported measurement": 2.24}
{"mut": "E15S", "reported measurement": 2.02}
{"mut": "D12T", "reported measurement": 1.66}
{"mut": "I14E", "reported measurement": 4.92}
{"mut": "N5E", "reported measurement": 3.08}
{"mut": "S7R", "reported measurement": 2.39}
{"mut": "L23V", "reported measurement": 2.95}
{"mut": "P6Q", "reported measurement": 2.6}
{"mut": "D12E", "reported measurement": 2.29}
{"mut": "I3K", "reported measurement": 3.44}
{"mut": "E15D", "reported measurement": 2.95}
{"mut": "E10T", "reported measurement": 2.28}
{"mut": "L8M", "reported measurement": 2.42}
{"mut": "D19L", "reported measurement": 2.22}
{"mut": "D19P", "reported measurement": 2.65}
{"mut": "E10Q", "reported measurement": 2.37}
{"mut": "E17R", "reported measurement": 2.14}
{"mut": "I14R", "reported measurement": 4.34}
{"mut": "D19G", "reported measurement": 1.8}
{"mut": "E17D", "reported measurement": 2.7}
{"mut": "E17N", "reported measurement": 2.66}
{"mut": "R2K", "reported measurement": 2.98}
{"mut": "I16G", "reported measurement": 4.55}
{"mut": "N5G", "reported measurement": 1.9}
{"mut": "Q4T", "reported measurement": 2.27}
{"mut": "L18W", "reported measurement": 1.82}
{"mut": "E17W", "reported measurement": 1.85}
{"mut": "R9M", "reported measurement": 1.97}
